Biological target: T1, Brn2 DNA-binding domain (BD-Brn2) (Mus musculus (B6), UniProt P31360 336-435)
T1 sequence: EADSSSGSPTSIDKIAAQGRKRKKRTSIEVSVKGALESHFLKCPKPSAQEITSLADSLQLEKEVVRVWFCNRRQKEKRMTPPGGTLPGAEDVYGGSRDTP
Assay: EMSA; 10% glycerol, 20 mM HEPES pH 7.8, 45 mM KCl, 10 mM NaCl, 1 mM EDTA, 1 mM DTT, 0.2 ug/uL BSA, 0.1% NP-40, 50 ng poly-dIdC; 20 ng each GST protein; room temperature 30 min (heterodimers 4 C); 6% PAGE 0.25x TBE
Settings: protein: recombinant; tags: GST (N-terminal, pGEX-6P-1); label: 32P-dCTP fill-in of the 5' (dG)5 overhangs of both strands (Methods; control probes are given with GGG)

[
  {
    "binder": "32 (dsDNA) DNA 1: GGGGGCGTTGCACACAAACCTTAATTTTCCAATCTATTCCCCC DNA 2: GGGGGAATAGATTGGAAAATTAAGGTTTGTGTGCAACGCCCCC",
    "binding result": "binds"
  },
  {
    "binder": "19 (dsDNA) DNA 1: GGGGGGAAGGAAAATTGTTCCCTGACATTTTTGAACTGGGCCCCC DNA 2: GGGGGCCCAGTTCAAAAATGTCAGGGAACAATTTTCCTTCCCCCC",
    "binding result": "no binding"
  },
  {
    "binder": "120 (dsDNA) DNA 1: GGGGGTCCACACTCTATAATCTCACATTGTTTGGCACCCCCCC DNA 2: GGGGGGGTGCCAAACAATGTGAGATTATAGAGTGTGGACCCCC",
    "binding result": "no binding"
  },
  {
    "binder": "122 (dsDNA) DNA 1: GGGGGGAAAAGGATTTGTACTTAAATAAGCACCTGGCCCCCC DNA 2: GGGGGGCCAGGTGCTTATTTAAGTACAAATCCTTTTCCCCCC",
    "binding result": "binds"
  },
  {
    "binder": "69 (dsDNA) DNA 1: GGGGGACAAGTGATTTGTCCTTATCACATAGCTAGGAAAAGGGAATCCCCC DNA 2: GGGGGATTCCCTTTTCCTAGCTATGTGATAAGGACAAATCACTTGTCCCCC",
    "binding result": "no binding"
  },
  {
    "binder": "88 (dsDNA) DNA 1: GGGGGTGTTTTGTTTTGTTTTTTGTATTGGGAAGTGGGCCCCC DNA 2: GGGGGCCCACTTCCCAATACAAAAAACAAAACAAAACACCCCC",
    "binding result": "no binding"
  },
  {
    "binder": "89 (dsDNA) DNA 1: GGGGGCTACCACACCCAACCTCTAGTAAAGGTTTACAAAATGAATGACCCCC DNA 2: GGGGGTCATTCATTTTGTAAACCTTTACTAGAGGTTGGGTGTGGTAGCCCCC",
    "binding result": "no binding"
  },
  {
    "binder": "99 (dsDNA) DNA 1: GGGGGATATAACAAGATAATCATTGTTTTGAATATTCCAAGGATTTCCCCC DNA 2: GGGGGAAATCCTTGGAATATTCAAAACAATGATTATCTTGTTATATCCCCC",
    "binding result": "binds"
  },
  {
    "binder": "124 (dsDNA) DNA 1: GGGGGCTTATGCTTCTATTCTACACAATTCCACAACCCCCC DNA 2: GGGGGGTTGTGGAATTGTGTAGAATAGAAGCATAAGCCCCC",
    "binding result": "no binding"
  },
  {
    "binder": "83 (dsDNA) DNA 1: GGGGGGTCCAAGTTTTGTGACCCTTTAATACAGTTAGATCCCCCC DNA 2: GGGGGGATCTAACTGTATTAAAGGGTCACAAAACTTGGACCCCCC",
    "binding result": "no binding"
  },
  {
    "binder": "45 (dsDNA) DNA 1: GGGGGAAATGTGCTTTATTTCACAAAATCAACAACCCCC DNA 2: GGGGGTTGTTGATTTTGTGAAATAAAGCACATTTCCCCC",
    "binding result": "no binding"
  },
  {
    "binder": "90 (dsDNA) DNA 1: GGGGGTGCTGTTTTTTGTTACTGTCACTAATTACATTTTAAATTATCCCCC DNA 2: GGGGGATAATTTAAAATGTAATTAGTGACAGTAACAAAAAACAGCACCCCC",
    "binding result": "binds"
  },
  {
    "binder": "29 (dsDNA) DNA 1: GGGGGAAAAACTTTTTGTTATTTCATTTTTATTAGTGGCCCCC DNA 2: GGGGGCCACTAATAAAAATGAAATAACAAAAAGTTTTTCCCCC",
    "binding result": "no binding"
  },
  {
    "binder": "58 (dsDNA) DNA 1: GGGGGTGAGATGGAGGAAATAAGTCTTATTGTTGTTCTCCCCCCC DNA 2: GGGGGGGAGAACAACAATAAGACTTATTTCCTCCATCTCACCCCC",
    "binding result": "no binding"
  },
  {
    "binder": "28 (dsDNA) DNA 1: GGGGGAAAAAAGATTCTAATCTTTTTTGTGGTGGTGGCCCCC DNA 2: GGGGGCCACCACCACAAAAAAGATTAGAATCTTTTTTCCCCC",
    "binding result": "no binding"
  },
  {
    "binder": "4a (dsDNA) DNA 1: GGGGGGACTTAATTGTGAGTCTCTGTAAAATTAACAAACAAGTTACCCCCC DNA 2: GGGGGGTAACTTGTTTGTTAATTTTACAGAGACTCACAATTAAGTCCCCCC",
    "binding result": "binds"
  },
  {
    "binder": "23 (dsDNA) DNA 1: GGGGGAATCTCTATCTTACTTCTTGTAAGTGTGGACAAATGCAGGTTCCCCC DNA 2: GGGGGAACCTGCATTTGTCCACACTTACAAGAAGTAAGATAGAGATTCCCCC",
    "binding result": "no binding"
  },
  {
    "binder": "64 (dsDNA) DNA 1: GGGGGATATATGCACAAACACTCATTTACATAAAATAACCCCC DNA 2: GGGGGTTATTTTATGTAAATGAGTGTTTGTGCATATATCCCCC",
    "binding result": "binds"
  }
]
